- Tested on: K-562 leukemia
- test-description: NCI tumour cell line growth inhibition, 48 h
Would you mind telling me the reported TGI of each entry?

input: I would be grateful if you could share the reported TGI for `Nc1cn(Cc2ccccc2)c2nc(/C=C3/C=CC=CC3=O)c(O)n12` .
output: > 100 µM

input: Param item: CC(C)(C)[Si](C)(C)OCC1CCC(n2cnc3c(N)ncnc32)O1 (stereo not drawn)
output: > 100 µM

input: Then what about the compound O=C(O)C1Cc2c([nH]c3ccccc23)C=N1 (stereo not drawn) ?
output: > 100 µM

input: Let us now turn to `Cn1nc(-c2ccccc2)nc1[N+](=O)[O-]`
output: > 10 µM

input: And then COc1cc(C2=C(C#N)C(N)OC3=C2COc2ccccc23)cc(OC)c1OC (stereo not drawn) , what is it?
output: > 100 µM

input: Could you do the same for `COc1ccc(-c2c(CN3CCOCC3)sc3nc4ccccc4n23)cc1` , please?
output: > 28.7 µM

input: Cool, now `Cc1cc(I)cc(CN(C)CCN2CCCC2)c1O`
output: 26.4 µM

input: And `NNc1nc2ccccc2s1` ?
output: > 100 µM

input: What do you have for `N=C(N)c1csc([C@@H]2O[C@H](CO)[C@@H](O)[C@H]2O)n1` ?
output: > 100 µM

input: Same question for COC(=O)C12CC(c3ccccc31)C1C(=O)OC(=O)C12 (stereo not drawn) please.
output: > 100 µM

input: Can you handle CC1(C)CCCCCCC2OC2CCCCCC(C)(C)C1=O (stereo not drawn) next?
output: > 82.6 µM

input: // repeat for `O=C(c1cccs1)N(C(=S)N1CCN(c2ccccn2)CC1)C1CCCCC1` and report
output: > 100 µM

input: And the next one, `c1cc(OCCN2CCCCC2)ccc1CNc1ccc2nc(CCC3CCCCC3)[nH]c2c1` ?
output: 3.6 µM

input: Same question for `Nc1ccc2c3c(n(CCCCl)c(=O)c2c1)-c1cc2c(cc1C3=O)OCO2` please.
output: > 100 µM

input: Item: NC1=NN(c2ccccc2)C2(O)c3ccncc3C3=NN(c4ccccc4)C(=O)C132 (stereo not drawn)
output: > 100 µM

input: How about O=C(O)c1ccc2c(c1)CC1(C2)Cc2ccccc2C1=O (stereo not drawn) ?
output: > 100 µM

input: Input NC(CCP(=O)(O)CCC1C=CC=CC1)C(=O)O (stereo not drawn)
output: > 100 µM

input: Next compound: `COc1cc(C(=O)C/C(CCC(=O)Nc2ccc(Cl)cc2C)=N/NC(=O)C(N)=O)ccc1O`
output: > 100 µM

input: Quick one: `N#Cc1c(Cl)c2ccccc2n2c1nc1ccccc12`
output: > 100 µM

input: Also `CN(C(=O)Cc1ccc(Cl)c(Cl)c1)[C@@H]1CCCC[C@H]1[N+]1(C)CC=CC1` , if possible.
output: > 100 µM

input: Could you do the same for `CCc1nc(N)nc(C(=O)NCCNC(=O)c2nc(N)nc(CC)c2C)c1C` , please?
output: > 100 µM

input: What do you get for C[C@]12CC[C@H](OCCC#N)CC1=CC[C@@H]1C2CC[C@]2(C)/C(=N/OCCC#N)CCC12 (stereo partly drawn) ?
output: > 100 µM

input: Try this compound too: CCC1=CC2Cc3nc4cc(Cl)ccc4c(N)c3C(C1)C2 (stereo not drawn)
output: 7.57 µM
